Ref: a melting point compilation (Tetko et al.; mined from patent text by program, amines drawn as free bases though some values may be those of a salt)

READOUT_LABEL: melting point

Examples with answers:
COMPOUND	melting point
CCc1cc(C=C(C#N)C#N)ccc1N=C1SCC2(CCCC2)N1C1CCCC1	135 to 136 °C
CC1(c2cccs2)Cc2cc(O)c(Cl)c(Cl)c2C1=O (stereo not given)	224 to 226 °C
O=C(O)Cc1cc2c([N+](=O)[O-])c(O)c(O)cc2oc1=O	> 350 °C
CCCCCCCCNC(=O)Oc1ccc(Oc2ccccc2)cc1	44 to 46 °C

Switching to the query record.
Task: Which melting point value belongs to CC1CCCN1c1cc(F)cc(C(=O)Nc2ccc(OCCN3CCOCC3)c3ccccc23)c1 (stereo not given) ?
Output: 108 to 111 °C

----------
Decide by melting point: equal to or exceeding 200 °C means 1, less means -1.

Example entries and their recorded answers appear below.
COMPOUND	GROUP_LABEL
Nc1c(F)c(F)cc(F)c1[N+](=O)[O-]	-1
O=C(COc1ccc(Cl)cc1Cl)OCNC(=O)Oc1cccc(Cl)c1	-1
COc1ccc(N2CCOCC2)c2sc(C(=O)NCC(=O)c3csc4ccccc34)nc12	1

Task: Determine whether measured melting point meets or exceeds 200 °C for Nc1nc2c(c(=O)[nH]1)n(Cc1ccccc1)c(=O)n2C1OC(CO)C(O)C1O (stereo not given)
Output: -1

Task: Determine whether measured melting point meets or exceeds 200 °C for CN1C(=O)N(c2cc(Cl)cc(Cl)c2)C(=O)[C@]12CN(Cc1ccccc1)C[C@H]2c1ccc(-c2cncnc2)cc1 (relative stereo)
Output: 1

Task: Determine whether measured melting point meets or exceeds 200 °C for `O=C(O)c1cccc([N+](=O)[O-])c1NCc1ccccc1Cl`
Output: -1

----------
READOUT_LABEL: melting point

Examples with answers:
COMPOUND	melting point
COc1ccc(-c2c(C(=O)c3ccccc3)c(C)nc3cc(OC)c(OC)cc23)cc1OC	151 to 152 °C
O=C(O)CNC(=O)c1nnc2ccc(NCCCN3CCC(OC(c4ccccc4)c4ccccc4)CC3)nn12	182 to 184 °C
NCCCCCC(=O)Nc1cccc(C(=O)NCCC(=O)O)c1	221 °C
CC(=O)N[C@H](Cc1ccc(C(=O)c2ccccc2)cc1)C(=O)O	186 to 187 °C
CCCc1c(CSc2nccc(OCC(=O)O)n2)ccc(C(C)=O)c1O	174 to 178 °C
CCCSc1nc2cc(C)c(C)cc2[nH]1	122 to 123 °C
CCOC(=O)CNC(=O)c1n[nH]cc1NC(=O)c1cccc(C)n1	228 to 229 °C
CC(C)(C)OC(=O)C(=[N+]=[N-])C(=O)CO	35 °C
CNC(=O)C(C)(C)C(O)(Cn1cncn1)c1ccc(Cl)cc1Cl (stereo not given)	145 to 146 °C

Task: Which melting point value belongs to `COc1c(F)cc2[nH]c(C)c(CC(=O)O)c2c1F` ?
Output: 176 to 178 °C

----------
Listing of recorded melting point by entry.

Examples with answers:
COMPOUND	melting point
COc1ccccc1CN[C@@H]1[C@@H]2CCN([C@H](CCc3ccccc3)C2)[C@@H]1C(c1ccccc1)c1ccccc1 (relative stereo)	107 to 108 °C
Cc1nc(N)sc1S(=O)(=O)N(C)CCO	118 °C
CC(C)OC(=O)C(C(=O)OC(C)C)=C1SC2C(S1)N(C)CCN2C (stereo not given)	93.6 °C
CCCC(=O)c1cnc2cc(COC(=O)c3ccccc3)ccc2c1Cl	66 to 68 °C
CC(CO)Nc1c(Br)cnc2cc(Cl)ccc12 (stereo not given)	145 to 147 °C
CC(C)c1cc(CC2SCNC2=O)cc(C(C)C)c1O (stereo not given)	136 to 139 °C

Task: Which melting point value belongs to `COc1cc2c(cc1O)CCN(S(=O)(=O)c1ccccc1OC)C2` ?
Output: 140 to 142 °C

Task: Which melting point value belongs to CSc1cnc(NC(=O)C(Cc2ccc(F)cc2)c2ccc(S(C)(=O)=O)cc2)cn1 (stereo not given) ?
Output: 188 °C

Task: Which melting point value belongs to `CCC(=O)Oc1cc(-c2nc3cc(F)ccc3s2)ccc1OC` ?
Output: 150 °C

Task: Which melting point value belongs to `Cn1nc(-c2c(F)cccc2Cl)nc1-c1ccc(Cc2ccc(Cl)c(Cl)c2)c(Cl)c1` ?
Output: 179 to 185 °C

Task: Which melting point value belongs to COC(=O)c1ccccc1OCC(O)CNC(C)C (stereo not given) ?
Output: 78 to 79 °C

Task: Which melting point value belongs to COCc1cccc(C(C#N)c2nc(OC)cc(OC)n2)c1[N+](=O)[O-] (stereo not given) ?
Output: 112 to 113 °C

----------
Listing of recorded melting point by entry.

Examples with answers:
COMPOUND	VAL
CC(=O)Oc1c2c(c3ccccc3c1OC(=O)CNC(=O)OC(C)(C)C)OC(C)(C)CC2	177 °C
O=C(O)c1coc2c(Cl)cc(Cl)cc2c1=O	196 °C
CSc1nccc(Oc2ccc(NC(=O)c3cccc(OC(C)(C)C)c3)c3ccccc23)n1	135 to 136 °C

Switching to the query record.
Task: Which melting point value belongs to CCCCCCC(C)N(Cc1ccc(CC(C)(C)C)cc1)C(Nc1cc(C(C)(C)C)c(O)c(C(C)(C)C)c1)=C1C(=O)COC1=O (centres undefined) ?
Output: 158 to 160 °C

----------
READOUT_LABEL: melting point

Examples with answers:
COMPOUND	melting point
Cc1cc(-c2cnn3c(C(F)(F)F)cc(-c4ccc(C(F)(F)F)c(F)c4)nc23)ccn1	250 °C
Cc1sc2c(c1C(=O)c1ccccc1)CCC2C(=O)O (stereo not given)	145 to 147 °C

Switching to the query record.
Task: Which melting point value belongs to `CCc1cc2c(=O)n3cc(C(N)=O)ccc3nc2s1` ?
Output: 278 to 280 °C

----------
Listing of recorded melting point by entry.
Number in °C, nothing else.

Examples with answers:
MOLECULE	melting point, °C
CC1(OC(=O)C=CC2C(C(=O)OC(C#N)c3cccc(Oc4ccccc4)c3)C2(C)C)CCC1 (stereo unspecified)	78
CCCCN1C(=O)CN(c2ccccc2)C1=O	74

Switching to the query record.
Task: Which melting point value belongs to `CC(=O)C(=O)Nc1ccc(Cl)cc1` ?
Output: 151

----------
READOUT_LABEL: melting point

Task: Which melting point value belongs to `CN1C(=O)CC[C@]2(C)c3ccc(-c4ccccc4C#N)cc3CC[C@@H]12` ?
Output: 54 to 55 °C

Task: Which melting point value belongs to `CC(=O)c1ccc(-n2c(-c3cc(-c4ccccc4)c(N4CCOCC4)s3)nc3ccccc3c2=O)cc1` ?
Output: > 275 °C

Task: Which melting point value belongs to Cc1nn(C)c2c1N=CN1CC(C)N=C21 (stereo unspecified) ?
Output: 115 to 117 °C

Task: Which melting point value belongs to `CC(=O)N=c1sccn1CC(=O)c1cccc(NC(C)=O)c1` ?
Output: 224 to 226 °C

Task: Which melting point value belongs to `CN(C)S(=O)(=O)c1ccc(C(N)=O)c(C(F)(F)F)c1` ?
Output: 149 to 156 °C

Task: Which melting point value belongs to `O=[N+]([O-])c1cc(Cl)cc(C(O)c2cc(Cl)cc([N+](=O)[O-])c2O)c1O` ?
Output: 180 °C

Task: Which melting point value belongs to CS(=O)c1ccc(Oc2ccc(Cl)c(Cl)c2)nc1C#N (stereo unspecified) ?
Output: 165 to 167 °C

Task: Which melting point value belongs to `CC(C)C(=O)N1CCC(c2nc3cc(-c4ccc(-n5cnnn5)cc4F)ccc3o2)CC1` ?
Output: 190 to 194 °C

Task: Which melting point value belongs to `FC(F)(F)c1cccc(-c2nnc(Cl)cc2Cl)c1` ?
Output: 80 to 81.5 °C

Task: Which melting point value belongs to `COc1ccc(-c2cc(O)n3nccc3n2)cc1OC` ?
Output: 268 to 270 °C

Task: Which melting point value belongs to `COc1ccc(C(=O)Nc2ccccc2)cc1NCc1ccc(C(C)C)cc1` ?
Output: 174 to 176 °C

----------
Listing of recorded melting point by entry.

COMPOUND	READOUT_LABEL	VAL
CC(C)(C)c1nc2cc(N3CCCC3)c(NC(N)=S)cc2s1	melting point	221 °C
COC(=O)CCn1ccc2cc([N+](=O)[O-])ccc21	melting point	97 to 99 °C
CNC(=O)c1nc(-c2cccnc2)nc2c1[nH]c(=O)n2-c1ccccc1	melting point	> 330 °C
FC(F)(F)c1cc(NCc2ccsc2)cc(C(F)(F)F)c1Br	melting point	78 to 79 °C
Cc1cc(C)c2nc(C)n(Cc3ccc(NCC4CCN(C5CCN(C)CC5)CC4)cc3)c2n1	melting point	118 to 120 °C
COCCCNc1cc(C)ccc1N	melting point	69 to 72 °C
O=C(O)c1c(I)c(I)c(C(=O)O)c(I)c1I	melting point	205 to 206 °C
COC(CO)(OC)C1(c2ccc(Cl)cc2)CCC1	melting point	73 to 74 °C
C=CCN1CC(C)N(C(c2cccc(O)c2)c2ccc(C(=O)N(CC)CC)s2)CC1C (stereo unspecified)	melting point	113 to 116 °C
O=C1CC(C(=O)Nc2ccccc2O)CN1 (stereo unspecified)	melting point	133 to 135 °C

Task: Which melting point value belongs to O[C@H]1CN(Cc2ccccc2)CC[C@@H]1c1ccc(Br)cc1 (racemic) ?
Output: 125 to 129 °C
